Biological target: T1, cyno CD137 (cynomolgus monkey, UniProt Q07011 24-186 (human entry), limits assumed)
T1 construct: also called cynomolgus monkey CD137
T1 chain: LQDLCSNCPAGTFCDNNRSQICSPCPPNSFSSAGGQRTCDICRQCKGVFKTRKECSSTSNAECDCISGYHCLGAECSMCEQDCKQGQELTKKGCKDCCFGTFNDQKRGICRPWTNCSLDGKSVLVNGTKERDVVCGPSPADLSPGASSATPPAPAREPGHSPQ
Assay: SPR Biacore T200, IgG captured on protein A, 25 C;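 also: antigens diluted in ACES running buffer at pH 7.4 were flowed over antibodies held on a CM3 chip bearing amine-coupled protein A, with buffer alone serving as blank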
attributeMeasured: koff (s⁻¹)
Field format: number, assumed s⁻¹, no unit text.

binder	recordedValue
dBBDu186/L100 (antibody, V domains shown, IgG format; constant regions not specified) VH: QVQLVESGGGLVQPGRSLRLSCAASGFTFSNAWMHWVRQAPGKGLEWVAQIKDRSNQYATYYAPSVKGRFTISRDDSKNSIYLQMNSLKTEDTAVYYCHYVHYAQASTVLPAFGVDAWGQGTTVTVSS VL: DIVMTQSPLSLPVTPGEPASISCSASEELVHINRYIFLHWYQQKPGQAPRLLIYKVYNRFMGVPDRFSGSGSGTDFTLKISRVEAEDVGVYYCGQGSSVPFTFGQGTKLEIK	0.00208

Next binder, please.
Query string: Please give the measured koff for this binder: dBBDu186/L108 (antibody, V domains shown, IgG format; constant regions not specified) VH: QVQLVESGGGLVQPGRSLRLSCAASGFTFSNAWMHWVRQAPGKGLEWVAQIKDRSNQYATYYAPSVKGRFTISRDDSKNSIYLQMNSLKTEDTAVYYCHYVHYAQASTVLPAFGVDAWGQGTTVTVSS VL: DIVMTQSPLSLPVTPGEPASISCRTSEELLHINRFTFLHWYQQKPGQAPRLLIYKVSNRFMGVPDRFSGSGSGTDFTLKISRVEAEDVGVYYCAQGSAVPFTFGQGTKLEIK
Result string: 0.00361
